Provide the recorded Kd for the entries that follow.
- assayed.system: KMT9 (Homo sapiens)
- Sequence (Q9Y5N5 1-214): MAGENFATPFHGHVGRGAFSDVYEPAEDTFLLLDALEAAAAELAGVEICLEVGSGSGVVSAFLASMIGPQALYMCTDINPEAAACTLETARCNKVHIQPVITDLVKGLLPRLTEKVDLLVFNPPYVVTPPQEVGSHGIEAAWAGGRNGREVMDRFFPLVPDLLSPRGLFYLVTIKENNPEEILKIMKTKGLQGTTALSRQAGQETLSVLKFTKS
- Sequence (Q9UI30 1-120 isoform Q9UI30-2 partner): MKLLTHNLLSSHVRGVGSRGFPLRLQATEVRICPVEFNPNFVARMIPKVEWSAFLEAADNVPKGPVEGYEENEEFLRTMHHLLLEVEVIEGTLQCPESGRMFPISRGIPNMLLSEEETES
- protocol.text: Microscale thermophoresis (MST) KMT9 binding
- test.settings: microscale thermophoresis, His-tag labelled KMT9 (20 nM); read-out: MST

Q: What value of Kd has been reported for the following molecule? "C=Cc1cn([C@@H]2C[C@H](CNCCCNCCc3ccccc3)[C@@H](O)[C@H]2O)c2ncnc(Cl)c12"
Result: > 1000 nM

Q: Cool, now "CN1CCC(c2cn([C@@H]3C[C@H](CNCCCNCCc4ccccc4)[C@@H](O)[C@H]3O)c3ncnc(N)c23)CC1"
Result: > 1000 nM

Q: Cool, now "CNc1ncnc2c1ccn2[C@@H]1C[C@H](CNCCCNCCc2ccc(Oc3ccc(Cl)cc3)c(F)c2)[C@@H](O)[C@H]1O"
Result: > 1000 nM

Q: Cool, now "CNc1ncnc2c1ccn2[C@@H]1C[C@H](CN(CCCNCCc2ccccc2)c2ccn(C)n2)[C@@H](O)[C@H]1O"
Result: > 1000 nM

Q: Cool, now CNc1ncnc2c1ccn2[C@@H]1C[C@H](CN2CCC[C@]23CCCNC3)[C@@H](O)[C@H]1O (single isomer, unassigned)
Result: > 1000 nM

Q: Cool, now "CNc1ncnc2c1c(Br)cn2[C@@H]1C[C@H](CNCCCNCCc2cccc(Oc3ccccc3)c2)[C@@H](O)[C@H]1O"
Result: > 1000 nM

Q: Cool, now "O[C@@H]1[C@@H](CNCCCNCCc2ccccc2)C[C@@H](n2cc(-c3cc(Cc4ccccc4)ns3)c3cncnc32)[C@@H]1O"
Result: > 1000 nM

Q: Cool, now "Nc1ncnc2c1c(Br)cn2[C@@H]1C[C@H](CNCCCNCCc2ccc(F)cc2)[C@@H](O)[C@H]1O"
Result: 10 to 100 nM

Q: Cool, now "CNc1ncnc2c1ccn2[C@@H]1C[C@H](CN(CCCNCCc2ccc3ccccc3c2)CC(F)(F)F)[C@@H](O)[C@H]1O"
Result: > 1000 nM

Q: Cool, now "COCCn1cc(-c2ccc(CCNCCCNC[C@H]3O[C@@H](n4cnc5c(N)ncnc54)[C@H](O)[C@@H]3O)cc2)nn1"
Result: 100 to 1000 nM

Q: Cool, now Nc1ncnc2c1c(-c1nc(Cc3ccccc3)cs1)cn2[C@@H]1C[C@H]([C@H]2CCCNC2)[C@@H](O)[C@H]1O (single isomer, unassigned) [Compound 593S]
Result: 100 to 1000 nM

Q: Cool, now "CNc1ncnc2c1ccn2[C@@H]1C[C@H](CNC[C@H]2CCCNC2)[C@@H](O)[C@H]1O"
Result: > 1000 nM

Q: Cool, now "CNc1ncnc2c1ccn2[C@@H]1C[C@H](CNCCCNCCc2ccc3ccccc3c2)[C@@H](O)[C@H]1O"
Result: > 1000 nM

Q: Cool, now "O[C@@H]1[C@@H](CNCCCNCCc2ccccc2)C[C@@H](n2cc(-c3[nH]ncc3Cl)c3cncnc32)[C@@H]1O"
Result: > 1000 nM

Q: Cool, now "CNc1ncnc2c1ccn2[C@@H]1C[C@H](CNCCCNCCc2ccccc2)[C@@H](O)[C@H]1O"
Result: > 1000 nM

Q: Cool, now "Nc1ncnc2c1ccn2[C@@H]1C[C@H](c2ccc3ccccc3c2)[C@@H](O)[C@H]1O"
Result: > 1000 nM

Q: Cool, now "O[C@@H]1[C@H](O)[C@@H](C2CCNCC2)C[C@H]1n1cc2c3c(ncnc31)NCCC2"
Result: 100 to 1000 nM

Q: Cool, now "O[C@@H]1[C@@H](CNCCCNCCc2ccccc2)C[C@@H](n2cc(-c3nccs3)c3cnc(Cl)nc32)[C@@H]1O"
Result: 100 to 1000 nM

Q: Cool, now CNc1ncnc2c1ccn2[C@@H]1C[C@H](C(=O)NCC2CCCNC2)[C@@H](O)[C@H]1O (stereo partly drawn)
Result: > 1000 nM

Q: Cool, now Nc1ncnc2c1c(-c1nc(Cc3ccccc3)cs1)cn2[C@@H]1C[C@H]([C@@H]2CCCNC2)[C@@H](O)[C@H]1O (single isomer, unassigned) [Compound 593R]
Result: 100 to 1000 nM

Q: Cool, now "NC[C@H]1O[C@@H](n2cc3c4c(ncnc42)NCCC3)[C@H](O)[C@@H]1O"
Result: > 1000 nM

Q: Cool, now "O[C@@H]1[C@H](O)[C@@H](C2CCNCC2)C[C@H]1n1cc(-c2ccn(Cc3ccccc3)n2)c2cnc(Cl)nc21"
Result: 100 to 1000 nM

Q: Cool, now "NC[C@H]1C[C@@H](n2cc3c4c(ncnc42)NC(=O)CC3)[C@H](O)[C@@H]1O"
Result: > 1000 nM

Q: Cool, now "Nc1ncnc2c1c(-c1ccn(Cc3ccccc3)n1)cn2[C@@H]1C[C@H](C2CCNCC2)[C@@H](O)[C@H]1O"
Result: 10 to 100 nM
